compounds and their reported melting point
Value type: melting point

>>> reported_result("COc1ccc(CCN(C)CCCCc2ccc(NC(=O)c3cccc4c(=O)c5cccc(OC)c5[nH]c34)cc2)cc1")
"182 °C"
>>> reported_result("c1ccc(-c2nc3cc(COc4ccc(CCCn5ccnc5)cc4)ccc3o2)cc1")
"137 to 138 °C"
>>> reported_result("c1ccc(-c2cc(-c3ccc(C4CCCC4)cc3)sc2-c2ccccc2)cc1")
"150 °C"
>>> reported_result("CC#CCOc1ccc([S@](=O)[C@@H](CCCCCC)C(=O)O)cc1")
"112 °C"
>>> reported_result("COc1cc2c(c3c1OC(C)(C)C3)C(Nc1ccccc1)=NC(C)(C)C2")
"135 to 136 °C"
>>> reported_result("CC(=O)n1nc(-c2ccccc2)cc1Sc1ccccc1")
"83 to 84.5 °C"
>>> reported_result("CC(C)N1CCC(COc2ncc(C(=O)c3ccc(Cl)cc3)n2C)CC1")
"126 to 127 °C"
>>> reported_result("CCN(C/C=C/C#CC(C)(C)C)Cc1cccc(N(C)Cc2cccc(-c3ccsc3)c2)c1")
"51 to 52 °C"
>>> reported_result("Cc1cccc(COc2cccc(OCc3ccc4cc(F)ccc4n3)c2)c1OCC(=O)O")
"160 to 161 °C"
>>> reported_result("O=c1cc(-c2nc[nH]n2)oc2ccccc12")
"210 °C"
>>> reported_result("COc1nc(NC(=O)NS(=O)(=O)c2ccccc2OCC#N)nn1C")
"205 to 207 °C"
>>> reported_result("Cn1nc2n(c1=O)-c1ccc(Cl)cc1C(c1ccccc1F)=CC2")
"142 to 143 °C"
>>> reported_result("CC(C)Nc1ncnc2cscc12")
"230 °C"
>>> reported_result("CCOC(=O)CC(c1ccc(OC)cc1)N1C(=O)c2ccccc2C1=O (stereo unspecified)")
"32 °C"
>>> reported_result("NNC(=O)c1ccc(OC(F)(F)C(F)(F)F)cc1")
"117 to 120 °C"
>>> reported_result("CN1c2ccncc2NCc2cccn21")
"135 to 140 °C"
>>> reported_result("CC(=O)OC1CCC2(C)C(CCC3C4CC(C)C(O)(C(C)=O)C4(C)CCC32F)C1 (stereo unspecified)")
"150 °C"
>>> reported_result("CCCCc1c[nH]c2ccc(CO)cc2c1=O")
"260 °C"
>>> reported_result("COc1ccccc1Oc1c(NS(=O)(=O)c2ccc(C(C)(C)C)cc2)nc(-c2ncccn2)nc1OCCOc1ccc(Br)cc1")
"251 to 256 °C"
>>> reported_result("CN(C)Cc1cccc(Oc2ccc3c(c2)S(=O)(=O)NC2CCCN32)c1 (stereo unspecified)")
"122 °C"
>>> reported_result("NNC(=O)c1ccc2[nH]ncc2c1")
"251 to 252 °C"

----------
molecules and their reported melting point
Value type: melting point

>>> reported_result("O=C(CCCc1ccccc1)OCCCCCCCCCCCCNCC(O)c1ccccc1 (configuration not stated)")
"73 to 74 °C"
>>> reported_result("OCc1ccccc1CCCc1cc2c(cc1O)CCO2")
"110 to 112 °C"
>>> reported_result("COc1ccc(-c2ccc(=O)[nH]n2)cc1OC1CC2CCC1C2 (configuration not stated)")
"188 to 189 °C"
>>> reported_result("Cn1c(=O)cc(-c2nc(-c3ccccc3)cs2)c2cc(C(c3ccc(Cl)cc3)c3cnc(-c4ccccc4)[nH]3)ccc21 (configuration not stated)")
"190 °C"
>>> reported_result("COC(=O)c1nc(CCN(C)C)n2c1CN=C(c1ccccc1Cl)c1cc(Cl)ccc1-2")
"203 to 204 °C"
>>> reported_result("CCn1c(N)c(C(N)=O)c(=O)c2cnc(Nc3ccc(N4CCN(C(C)=O)CC4)cc3)nc21")
"179 °C"
>>> reported_result("CC1COCC(C)N1c1cccc([N+](=O)[O-])c1 (configuration not stated)")
"127 to 128 °C"
>>> reported_result("Cc1cc(C)cc(C(=O)NC(C(N)=O)n2cccn2)c1 (configuration not stated)")
"193 to 195 °C"
>>> reported_result("COC(=O)c1cn2c(n1)COc1c(OC)cccc1-2")
"188 to 190 °C"
>>> reported_result("Cc1ccccc1-c1ccc(C(=O)N2Cc3ccc(C(=O)NCc4ccccc4C(F)(F)F)n3Cc3ccccc32)cc1C")
"126 to 128 °C"
>>> reported_result("O=S(=O)(c1cccs1)N(CCO)c1cccc2cc(-c3nccs3)[nH]c12")
"170 to 171 °C"
>>> reported_result("O=[N+]([O-])c1ccc(Sc2ncc(Cl)cn2)s1")
"141 to 143 °C"
>>> reported_result("CC(C)C(=O)CCC(C)C1CCC2C3CC(O)C4CC(O)CCC4(C)C3CCC12C (configuration not stated)")
"180 to 181 °C"
>>> reported_result("Cc1cc(C2=CC3(CC(C)(C)C2CO)SCCCS3)ccc1F (configuration not stated)")
"128 to 129 °C"
>>> reported_result("CC(=O)NS(=O)(=O)c1cncc([N+](=O)[O-])c1")
"176 to 178 °C"
>>> reported_result("COc1ccc(OC)c(-c2c(C(C)C)cc(C(C)C)cc2C(C)C)c1I")
"189 to 191 °C"
>>> reported_result("O=C(O)CO[C@@H]1CCCC[C@H]1NC(=O)Nc1ccccc1 (relative stereo)")
"166 to 168 °C"
>>> reported_result("COc1cc(-n2nc(C)[nH]c2=O)c(F)cc1Cl")
"193 to 195 °C"
>>> reported_result("NC(=O)CCN1CCC(c2noc3cc(F)ccc23)CC1")
"144 to 147 °C"
>>> reported_result("O=S(=O)(O)NCc1ccncc1")
"227 to 228 °C"
>>> reported_result("Cc1cc(C2=NOC(c3cc(Cl)cc(Cl)c3)(C(F)(F)F)C2O)ccc1C(=O)O (configuration not stated)")
"215 to 217 °C"
>>> reported_result("c1ccc2c(c1)CCc1c(CN3CCN(c4cc5ccccc5cn4)CC3)n[nH]c1-2")
"228 to 230 °C"
>>> reported_result("Cc1c2c(c(C)c3c1NC(C)(C)C3)OC(C)(CN1CCC(N(C)c3nc4ccccc4s3)CC1)C2 (configuration not stated)")
"147 to 150 °C"
>>> reported_result("CS(=O)(=O)O[C@@H](CO)[C@H](Cc1ccccc1)NC(=O)OCc1ccccc1")
"121 to 122 °C"
>>> reported_result("COc1cc(C=C(Br)Br)ccc1OC(C)C")
"36 to 38 °C"
>>> reported_result("COc1ccc(OC)c(NC(=O)C2OC(=O)c3ccccc3C2c2ccc(F)cc2)c1 (configuration not stated)")
"133 to 136 °C"
>>> reported_result("COC(=O)c1cnc(C(=O)O)nc1")
"152 to 154 °C"
>>> reported_result("CC(C)(C(=O)O)C1(Br)OC2=CC=CC2=CC1c1ccccc1 (configuration not stated)")
"183 to 196 °C"
>>> reported_result("CCOc1csc(C)c1C1OC(=O)NC1=O (configuration not stated)")
"136 to 138 °C"
>>> reported_result("CC(NC(=O)C(CS)C1CCc2ccccc21)C(=O)O (configuration not stated)")
"121 °C"
>>> reported_result("c1ccc(-c2ncc(-c3cnc[nH]3)cn2)cc1")
"216 °C"
>>> reported_result("c1ccc(Nc2ncnc3ncccc23)cc1")
"258 °C"
>>> reported_result("COc1cc(C=O)cc(Cl)c1OCCBr")
"52 to 54 °C"
>>> reported_result("COC(=O)N1CCc2ccccc2CC1")
"53 to 54 °C"
>>> reported_result("C=CCC(NC(=O)C(C)(C)C)C(=O)O (configuration not stated)")
"87 to 88 °C"
>>> reported_result("COC(=O)c1ccc(OCCCN(C(N)=O)c2ccc(Cl)cc2)cc1")
"141 to 142 °C"
>>> reported_result("Cc1ccnc2c1nc(-c1cccnc1N)n2-c1ccc(CC(=O)Nc2cccc(F)c2)cc1")
"241 to 243 °C"
>>> reported_result("NC(=O)c1c(N)sc2ccccc2c1=O")
"277 to 279 °C"
>>> reported_result("Cc1nnc2ccc(-c3cccnc3)cn12")
"199 to 202 °C"
>>> reported_result("Fc1ccc2c(C3CCN(CCN4CCOCC4)CC3)noc2c1")
"131 to 132 °C"
>>> reported_result("COCCOc1cc2c(Nc3cc(OC)c(Cl)cc3Cl)c(C#N)cnc2cc1F")
"170 to 172 °C"
>>> reported_result("O=C(Nc1ccc(C(=O)O)cc1)OCc1nccn1-c1cc2cc(C(=O)O)c(=O)[nH]c2cc1Cl")
"249 to 251 °C"

----------
Value type: melting point

>>> reported_result("c1cc(-c2csnn2)ccn1")
"121 to 123 °C"
>>> reported_result("Cn1nc(-c2ccc(Cl)c(NS(C)(=O)=O)c2)c2ccccc2c1=O")
"234 to 236 °C"
>>> reported_result("Nc1cccc(-c2ccc(CCCN3CCN(CCc4ccccc4)CC3)cc2)n1")
"125 to 140 °C"
>>> reported_result("COc1ccc(CN(C(=O)C2CCCc3ccc(OC)cc32)c2ccc(OC)cc2)cc1 (stereo unspecified)")
"89 to 90 °C"
>>> reported_result("CCc1nc2cnc3cc(C=CC(=O)N(C)C)ccc3c2n1CC(C)(C)O")
"196 to 198 °C"
>>> reported_result("CCOC(=O)C1=Cc2cc(Br)ccc2SC1")
"87 °C"
